test: chemical genetic growth profiling, strain panel (AID 1159580);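 also: tested at 20 µM; growth read once vehicle control cultures reached saturation at 30 °C; 1 = growth at the plate median or of vehicle wells; lower values mean less growth of the strain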; conditions: S. cerevisiae deletion strains, growth OD, locus YJL154C, strain vps35
The whole screen tested about 5,500 compounds, of which about 2,000 (36%) were called active. Roughly 18% stayed inconclusive and do not appear here. Rule as the data show it: active = normalized growth mostly below about 0.91 (no sharp cut-off); inconclusive = no clear call, values can overlap the other calls; inactive = mostly above about 0.92. The list shows a part of the results.
Lab note: assign the record to one of active, inactive

1) NC(Cc1ccc(Cl)cc1)C(=O)O (stereo not drawn) | inactive
2) C[N+]12CCC(CC1)C(OC(=O)C(O)(c1ccccc1)c1ccccc1)C2 (stereo not drawn) | inactive
3) CC(C)Cn1c(=O)n(C)c(=O)c2[nH]cnc21 | inactive
4) Cc1cc2nc3c(=O)[nH]c(=O)nc-3n(CC(O)C(O)C(O)CO)c2cc1C (stereo not drawn) | inactive
5) O=c1c(O)c(-c2ccccc2)oc2ccccc12 | active

Prompt line: Write down the call the test reported for this molecule. Item: COC(=O)C[C@H]1C(C)(C)[C@@H](OC(C)=O)[C@@H]2CC3=C4CC(=O)O[C@@H](c5ccoc5)[C@]4(C)CCC3[C@@]1(C)C2=O (stereo partly drawn)
Response line: inactive

Prompt line: Record request — test call for C=C(C)C1Cc2c(ccc3c(=O)c4c(oc23)COc2cc(OC)c(OC)cc2-4)O1 (stereo not drawn)
Response line: inactive

Prompt line: Give the logged outcome of this assay for the following molecule: CC(C)CCCC(C)N (stereo not drawn)
Response line: inactive

====

assay: chemical genetic growth profiling, strain panel (AID 1159580); conditions: S. cerevisiae deletion strains, growth OD, locus YNL071W, strain lat1
In all, about 5,500 compounds went through this assay and about 2,000 (36%) were called active. Roughly 18% stayed inconclusive and do not appear here. No stated cut-off is given here; in the data, active means normalized growth mostly below about 0.91 (no sharp cut-off); inconclusive means no clear call, values can overlap the other calls; inactive means mostly above about 0.92. Some of the results follow.
Respond using exactly one of the listed classes: yes (1) (active), no (0) (inactive)

# count of solved cases: 3
1. CCCCCC/C=C\CCCCCCCc1cccc(O)c1C(=O)O | no (0)
2. O=c1c(O)c(-c2ccccc2)oc2cc(O)ccc12 | yes (1)
3. CC(C)[C@@H]1CC[C@@H](C)CC1=O | no (0)

Prompt line: Could you check what this test reported for CC(=O)O[C@H]1CC2CCC3C(CC[C@@]4(C)C3C[C@H]([N+]3(C)CCCCC3)[C@@H]4OC(C)=O)[C@@]2(C)C[C@@H]1N1CCCCC1 (some centres not stated) ?
Response line: no (0)

Prompt line: # lookup: test call for O=C(/C=C/c1ccccc1)c1ccc(O)cc1O
Response line: yes (1)

Prompt line: In this assay, the call recorded for O=C(/C=C/c1ccc(O)cc1)c1ccc(O)cc1O was what?
Response line: no (0)

Prompt line: Dear colleague, could you share the recorded outcome for O=C1C=CC(=O)c2ccccc21 when you have a moment?
Response line: yes (1)

Prompt line: Dear colleague, could you share the recorded outcome for CC(=CC1CCC(C)C2CCC(C)=C12)C(=O)O (configuration not stated) when you have a moment?
Response line: yes (1)

====

assay: chemical genetic growth profiling, strain panel (AID 1159580); details: S. cerevisiae deletion strains, growth OD, locus YHR030C, strain SLT2, hits give low values
Hit rate of the full screen: of about 5,500 compounds, about 2,000 (36%) were called active. Another 18% or so got no clear call; they are omitted. Some of the results follow.
Lab note - cut at 1 for normalized growth: true if strictly below, false if not.

# count of solved cases: 2
1) O=[N+]([O-])c1ccc(NCc2ccc(Cl)c(Cl)c2)nc1 | true
2) Clc1cc(Cl)cc(Br)c1 | false

Prompt line: Strictly below 1: is that where normalized growth of CCOC(=O)c1ccc(N=Cc2cc(Cl)cc(Cl)c2O)cc1 sits?
Response line: true

====

assay: chemical genetic growth profiling, strain panel (AID 1159580); settings: S. cerevisiae deletion strains, growth OD, locus YIL125W, strain kgd1, hits give low values
The whole screen tested about 5,500 compounds, of which about 2,000 (36%) were called active. About 18% were inconclusive and are not listed. The list shows a part of the results.
Readout: normalized growth

1. Cn1c(=O)[nH]c2nc[nH]c2c1=O | 1 (inactive)
2. O=C(/C=C/c1ccc(O)cc1)c1ccc(O)cc1O | 0.963 (inactive)
3. O=C(/C=C/c1ccccc1)c1c(O)cc(O)cc1O | 1 (inactive)
4. Cn1c(=O)c2c(ncn2C)n(C)c1=O | 1.01 (inactive)

Proceeding to the next compound to report its normalized growth.
Prompt line: Identify the reported normalized growth for the following entry. CCCc1ncc(C[n+]2ccccc2C)c(N)n1
Response line: 0.986 (inactive)

====

test: chemical genetic growth profiling, strain panel (AID 1159580);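 also: tested at 20 µM; growth read once vehicle control cultures reached saturation at 30 °C; 1 = growth at the plate median or of vehicle wells; lower values mean less growth of the strain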; settings: S. cerevisiae deletion strains, growth OD, locus YDL101C, strain DUN1, hits give low values
The campaign covered roughly 5,500 compounds. About 2,000 (36%) were called active. Roughly 18% stayed inconclusive and do not appear here. This is one part of the list.
Readout: normalized growth
Give bare numbers.

Study these solved cases before continuing.
1. COC(=O)C[C@H]1C(C)(C)[C@H](O)[C@@H]2CC3=C4CC(O)O[C@@H](c5ccoc5)[C@]4(C)CCC3[C@@]1(C)C2=O (some centres undefined) | 0.99
2. COC(=O)c1sccc1S(=O)(=O)Nc1cc(C(F)(F)F)cc(C(F)(F)F)c1 | 0.957

Hi! Can you tell me normalized growth for each of these compounds?
1. N[C@@H](C(=O)N[C@@H]1C(=O)N2C(C(=O)O)=C(Cl)CS[C@H]12)c1ccccc1
2. CC1=C(C(=O)O)N2C(=O)[C@@H](NC(=O)[C@@H](N)c3ccc(O)cc3)[C@H]2SC1

Response line:
1. 1.01
2. 0.99

====

Consider the following molecules; for each one, report its normalized growth.
assay: chemical genetic growth profiling, strain panel (AID 1159580);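 also: tested at 20 µM; growth read once vehicle control cultures reached saturation at 30 °C; 1 = growth at the plate median or of vehicle wells; lower values mean less growth of the strain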; conditions: S. cerevisiae deletion strains, growth OD, locus YLR262C, strain YPT6, hits give low values
Hit rate of the full screen: of about 5,500 compounds, about 2,000 (36%) were called active. Not shown: some 18% with an inconclusive outcome. Some of the results follow.

Below, 5 molecules whose answers are already recorded.
1. COC(=O)C(Cc1c[nH]c2ccccc12)NC(=O)c1c(Cl)cccc1Cl (stereo unspecified) | 1 (inactive)
2. NC(=NCCCCCCN=C(N)N=C(N)Nc1ccc(Cl)cc1)N=C(N)Nc1ccc(Cl)cc1 | 0.0923 (active)
3. CCOC(=O)c1ccc(N2CCOCC2)c(N=Cc2cc(Cl)ccc2O)c1 | 0.38 (active)
4. CCOC(=O)CCC(C#N)(c1ccc(Cl)cc1)N1CCOCC1 (stereo unspecified) | 1.01 (inactive)
5. Cc1cc(N=C(N)N=C(N)N)no1 | 1.01 (inactive)

// next entry
Prompt line: Kindly indicate its recorded normalized growth. Item: CC(C)N=C(N)N=C(N)Nc1ccc(Cl)cc1
Response line: 1.04 (inactive)

====

Exercise: state measured normalized growth for each of the molecules provided.
experiment: chemical genetic growth profiling, strain panel (AID 1159580);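 also: tested at 20 µM; growth read once vehicle control cultures reached saturation at 30 °C; 1 = growth at the plate median or of vehicle wells; lower values mean less growth of the strain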; conditions: S. cerevisiae deletion strains, growth OD, locus YDR101C, strain arx1, hits give low values
Hit rate of the full screen: of about 5,500 compounds, about 2,000 (36%) were called active. Another 18% or so got no clear call; they are omitted. Some of the results follow.
Give bare numbers.

1) CC(C)c1cc2c(c(O)c1O)[C@@]1(C(=O)O)CCCC(C)(C)C1CC2 (stereo partly specified) | 1.02
2) ClC1C(Cl)C(Cl)C(Cl)C(Cl)C1Cl (stereo unspecified) | 0.956
3) CC(=O)NS(=O)(=O)c1ccc(N)cc1 | 0.971
4) CC(C)OC(=O)Nc1cccc(Cl)c1 | 0.984
5) CC(C)N=C(N)N=C(N)Nc1ccc(Cl)cc1 | 1.01
6) C=C[C@H]1CN2CC[C@H]1C[C@H]2[C@H](O)c1ccnc2ccccc12 | 0.985
7) CN(C)CCC[C@@]1(c2ccc(F)cc2)OCc2cc(C#N)ccc21 | 1.02
8) O=C1C(=O)c2ccccc2C(O)=C1C1CCC(c2ccc(Cl)cc2)CC1 (stereo unspecified) | 0.991

Count: 8. Required value per item: normalized growth.
1. CCCCCC/C=C\CCCCCCCc1cccc(O)c1C(=O)O
2. NC(Cc1ccc(Cl)cc1)C(=O)O (stereo unspecified)
3. CC(NC(C)(C)C)C(=O)c1cccc(Cl)c1 (stereo unspecified)
4. C=C(C)C1Cc2c(ccc3c(=O)c4c(oc23)COc2cc(OC)c(OC)cc2-4)O1 (stereo unspecified)
5. COC(=O)C[C@H]1C(C)(C)[C@@H](OC(C)=O)[C@@H]2CC3=C4CC(=O)O[C@@H](c5ccoc5)[C@]4(C)CCC3[C@@]1(C)C2=O (stereo partly specified)
6. O=C(O)c1cc(=O)c2ccccc2[nH]1
7. C[C@]12CC[C@@H](O)C[C@H]1CCc1ccccc12
8. NC(=NCCCCCCN=C(N)N=C(N)Nc1ccc(Cl)cc1)N=C(N)Nc1ccc(Cl)cc1

Response line:
1. 0.987
2. 1.01
3. 1.03
4. 1.04
5. 0.976
6. 0.993
7. 1.01
8. 0.0584
